- System: rat uterine decidualization
- assay_explanation: Rat decidualization assay
- Format: in vivo
- test_parameters: decrease in EC50 progesterone induced decidual response
- Protocol: The animals are treated once daily for seven days. […] Uteri are removed and trimmed of fat. Body weight: Mean total animal body weight (default-kg) Decidual response: [(D-C)/C]×100%
quantity: Decidualization IC50 (mg/kg)
Report as a plain number; the unit mg/kg is understood.

Before answering, review these 3 worked examples.
CC1(C)OC(=O)Nc2ccc(-c3ccc(F)c(Cl)c3)cc21 [Compound 20]; 1
N#Cc1cc(F)cc(-c2ccc3c(c2)C(C2CC2)(C2CC2)OC(=O)N3)c1 [Compound 15]; 3
CC1(C)OC(=O)Nc2ccc(-c3csc(C#N)c3)cc21 [Compound 17]; 2.3

Can you share its Decidualization IC50? I mean this molecule: Cc1cc(C#N)sc1-c1ccc2c(c1)C(C)(C)OC(=O)N2 [Compound 18] 1.5

Subsequent entry: CC1(C)OC(=O)Nc2ccc(-c3cccc(Br)c3)cc21 [Compound 13] 3

Subsequent entry: CC1(C)OC(=O)Nc2ccc(-c3cc(F)cc(C#N)c3)cc21 [Compound 19] 0.35

Values were extracted from patent US7488822B2.
